Assay: MRT in Sprague-Dawley rat at 10 mg/kg, iv measured upto 24 hrs by LC-MS/MS analysis
Assay type: ADME, organism-based
Details: in vivo
reported.endpoint: MRT (min)
Express it in min; write the number only.

The compound listed as CCC(CC)O[C@@H]1C=C(C(=O)O)C[C@H](Nc2ncccc2N)[C@H]1NC(C)=O shows MRT equal to 11.4

* * *

Test: in vitro
Details: human, liver microsomes
reported.endpoint: half-life at 1 h

The molecule listed as CCC(CC)O[C@@H]1C=C(C(=O)O)C[C@H](Nc2ncccc2N)[C@H]1NC(C)=O shows half-life at 1 h equal to > 2.42 h

* * *

Assay: in vitro
Settings: dog, MDCK cells
reported.endpoint: CC50 at 72 h

The compound listed as CCC(CC)O[C@@H]1C=C(C(=O)O)C[C@H](N)[C@H]1NC(C)=O [OSELTAMIVIR CARBOXYLATE] shows CC50 at 72 h equal to > 1000 µM
